Provenance of the data: patent US20220387487A1

- Test system: FMC63
- Sequence (as listed by the source): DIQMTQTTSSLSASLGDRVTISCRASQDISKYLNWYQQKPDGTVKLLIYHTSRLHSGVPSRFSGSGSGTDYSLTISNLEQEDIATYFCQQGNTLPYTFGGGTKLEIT
- Sequence (as listed by the source): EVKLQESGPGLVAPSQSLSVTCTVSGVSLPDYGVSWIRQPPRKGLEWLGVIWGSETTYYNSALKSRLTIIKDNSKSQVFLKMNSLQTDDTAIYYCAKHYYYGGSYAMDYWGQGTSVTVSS
- METHOD: CD19 variant binding to anti-CD19 antibody FMC63 (score)
- EXPERIMENTAL_PARAMETERS: Table 1A, CD19 single mutants (positions of SEQ ID NO:2)

MOLECULE	FMC63 Binding Score
K212S: CD19 variant (protein) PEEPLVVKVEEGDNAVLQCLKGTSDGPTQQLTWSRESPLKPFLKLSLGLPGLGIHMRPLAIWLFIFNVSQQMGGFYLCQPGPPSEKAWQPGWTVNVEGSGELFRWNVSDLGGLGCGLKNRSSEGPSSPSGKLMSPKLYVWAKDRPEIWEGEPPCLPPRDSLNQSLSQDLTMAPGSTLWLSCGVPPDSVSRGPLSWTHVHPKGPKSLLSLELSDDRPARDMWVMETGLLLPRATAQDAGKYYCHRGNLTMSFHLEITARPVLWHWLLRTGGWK	6.8 ± .6
